molecular target: human A2aR (Homo sapiens, UniProt P29274); experiment: Binding of humanized anti-A2aR antibodies in transfected Expi293F cell supernatant to human A2aR on HEK293 cells (FACS, MFI); settings: supernatant with 1 μg/ml antibody; HEK293 overexpressing human A2aR; heavy chain (row) x light chain
Sequence (P29274 whole entry): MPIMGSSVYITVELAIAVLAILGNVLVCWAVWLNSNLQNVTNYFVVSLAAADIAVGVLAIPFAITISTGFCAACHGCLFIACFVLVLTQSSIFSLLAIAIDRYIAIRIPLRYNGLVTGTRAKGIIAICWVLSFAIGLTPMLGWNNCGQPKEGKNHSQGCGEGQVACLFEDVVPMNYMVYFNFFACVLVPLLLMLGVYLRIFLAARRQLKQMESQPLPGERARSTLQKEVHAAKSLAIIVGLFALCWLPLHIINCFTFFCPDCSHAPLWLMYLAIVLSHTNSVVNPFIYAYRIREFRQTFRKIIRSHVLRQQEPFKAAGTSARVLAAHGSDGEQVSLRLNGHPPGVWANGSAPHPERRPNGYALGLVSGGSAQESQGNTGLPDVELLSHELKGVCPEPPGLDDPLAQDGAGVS
value.kind: MFI, binding to human A2aR on cell surface (3F8-12E9 derived)
Give the value as a plain number.

Identify the reported MFI, binding to human A2aR on cell surface (3F8-12E9 derived) for the following entry. Hu3F8-H3/Hu3F8-L2: humanized anti-A2aR IgG1 FES antibody; HCVR SEQ ID NO:66, LCVR SEQ ID NO:85 (antibody, V domains shown) VH: EVQLVQSGAEVKKPGASVKVSCKASGFTFTRYWMNWVRQAPGQGLEWIGRIDPSDSETHYNHKFWGRATLTVDTSTSTVYMELSSLRSEDTAVYYCLRSLYGKGDYWGQGTTVTVSS VL: DVVMTQSPLSLPVTLGQPASISCRSSQSIVHSNGNTYLEWYQQRPGQSPRRLIYKVSNRFSGVPDRFSGSGSGTDFTLKISRVEAEDVGVYYCYQGSHVPLTFGGGTKVEIK 93
